# assay_overview: gradient 5% acetonitrile 3 min, to 50% in 2 min, to 85% in 15 min, held 3 min, 100 µL/min
# condition_notes: column: Zorbax Extend-C18 2.1 x 50 mm; eluents: water / acetonitrile, 0.1% formic acid
readout: RP-LC retention time (s)
Answers are plain numbers, in s.

>  <input_smiles>
CCOC(=O)c1c(S(=O)(=O)N2CCC(C(=O)N3CCOCC3)CC2)c(C)n(C)c1C

>  <readout>
RP-LC retention time

>  <quantitative_result>
674

$$$$
>  <input_smiles>
Cc1nc(-c2cccc(F)c2)sc1C(=O)NC(C)C

>  <readout>
RP-LC retention time

>  <quantitative_result>
936

$$$$
>  <input_smiles>
CCOC(=O)c1[nH]c(C)c(CCC(=O)N2CCC(C(=O)NCc3cccs3)CC2)c1C

>  <readout>
RP-LC retention time

>  <quantitative_result>
755

$$$$
>  <input_smiles>
Cc1ccc(C(=O)N2CCOc3ccc(N(C)C)cc3C2)s1

>  <readout>
RP-LC retention time

>  <quantitative_result>
632

$$$$
>  <input_smiles>
O=C(Nc1ccccc1F)N1CCc2nnc(C3CC3)n2CC1

>  <readout>
RP-LC retention time

>  <quantitative_result>
592

$$$$
>  <input_smiles>
CCC(CC)C(=O)Nc1ccc2nc(N3CCN(CC)CC3)cc(C)c2c1

>  <readout>
RP-LC retention time

>  <quantitative_result>
593

$$$$

Below are 4 molecules. Give each one its RP-LC retention time.
1. COC(=O)Cn1c(C)cc(=O)n2nc(-c3ccc(Cl)cc3)nc12
2. COCCN1CCC(CNS(=O)(=O)c2ccc(F)cc2C)CC1
3. COCCNC(=O)c1csc(N2CCN(c3ccc(Cl)cc3)CC2)n1
4. COc1ccc(-c2nnc(SCc3cc(=O)n4c(C)csc4n3)o2)cc1OC

1: 793; 2: 566; 3: 972; 4: 762
